Hey, just so you know, these numbers are from paper PMC6691788.

- System: SNB-75
# 1 = GI50 below 1000 nM (exclusive); -1 = GI50 at/above 1000 nM

stdin: Does the reported GI50 of the following compound sit strictly below 1000 nM? Cc1nnc(Nc2ccc(NC(=O)Nc3ccc(Cl)cc3)cc2)c2ccccc12
stdout: -1

stdin: Take the compound O=C(Nc1ccc(Cl)cc1)Nc1ccc(Nc2nncc3ccccc23)cc1 and say whether its GI50 is less than 1000 nM.
stdout: -1

stdin: Given O=C(Nc1ccccc1)Nc1ccc(Oc2nnc(Cl)c3ccccc23)cc1 [Compound 13a] , is recorded GI50 strictly lower than 1000 nM?
stdout: -1

stdin: Quick check: GI50 of Clc1ccc(Nc2nnc(COc3ccccc3)c3ccccc23)cc1 [Compound 17a] under 1000 nM?
stdout: 1

stdin: Just wondering, is GI50 of COc1cccc(NCc2nnc(Nc3ccc(Cl)cc3)c3ccccc23)c1 [Compound 16d] below 1000 nM?
stdout: 1

stdin: Does this compound meet the criterion GI50 < 1000 nM? O=C(Nc1ccc(Cl)cc1)Nc1ccc(Oc2nncc3ccccc23)cc1
stdout: 1

stdin: Quick check: does Clc1ccc(Nc2nnc(CNc3ccccc3)c3ccccc23)cc1 [Compound 16a] have GI50 under 1000 nM?
stdout: 1
